- System: Staphylococcus aureus SA1199B
- Type: cell-based
- Method: The MIC's were determined using a standard broth micro-dilution assay.
Hi there, I'd appreciate the recorded MIC for every entry that follows.
Write the answer as a number in µg/mL, unit excluded.

// query Report measured MIC; entry is CNC(CC(C)C)C(=O)NC1C(=O)NC(CC(N)=O)C(=O)NC2C(=O)NC3C(=O)NC(C(=O)NC(C(=O)O)c4cc(O)cc(O)c4-c4cc3ccc4O)C(OC3CC(C)(N)C(O)C(C)O3)c3ccc(c(Cl)c3)Oc3cc2cc(c3OC2OC(CO)C(O)C(O)C2OC2CC(C)(NCc3ccc(C=Cc4ccccc4)cc3)C(O)C(C)O2)Oc2ccc(cc2Cl)C1O (stereo not drawn)
// result 0.25

// query Report measured MIC; entry is CNC(CC(C)C)C(=O)NC1C(=O)NC(CC(N)=O)C(=O)NC2C(=O)NC3C(=O)NC(C(=O)NC(C(=O)O)c4cc(O)cc(O)c4-c4cc3ccc4O)C(OC3CC(C)(N)C(O)C(C)O3)c3ccc(c(Cl)c3)Oc3cc2cc(c3OC2OC(CO)C(O)C(O)C2OC2CC(C)(NCc3ccc(Cl)c(C(=O)c4ccccc4)c3Cl)C(O)C(C)O2)Oc2ccc(cc2Cl)C1O (stereo not drawn)
// result 2

// query Report measured MIC; entry is CNC(CC(C)C)C(=O)NC1C(=O)NC(CC(N)=O)C(=O)NC2C(=O)NC3C(=O)NC(C(=O)NC(C(=O)O)c4cc(O)cc(O)c4-c4cc3ccc4O)C(OC3CC(C)(N)C(O)C(C)O3)c3ccc(c(Cl)c3)Oc3cc2cc(c3OC2OC(CO)C(O)C(O)C2OC2CC(C)(NCc3ccc4c(c3)CCCC4)C(O)C(C)O2)Oc2ccc(cc2Cl)C1O (stereo not drawn)
// result 1

// query Report measured MIC; entry is CNC(CC(C)C)C(=O)NC1C(=O)NC(CC(N)=O)C(=O)NC2C(=O)NC3C(=O)NC(C(=O)NC(C(=O)O)c4cc(O)cc(O)c4-c4cc3ccc4O)C(OC3CC(C)(N)C(O)C(C)O3)c3ccc(c(Cl)c3)Oc3cc2cc(c3OC2OC(CO)C(O)C(O)C2OC2CC(C)(NCc3ccc(-c4ccc(OC)cc4)s3)C(O)C(C)O2)Oc2ccc(cc2Cl)C1O (stereo not drawn)
// result 4
